- PROCEDURE_DETAILS: CARIV-A-001 Part A: single ascending IV doses over 20 minutes in healthy subjects
- Type: in vivo, human
- SETTINGS: both sexes, human, plasma, iv, 7.5 mg/kg, IV over 20 minutes, 7.5 mg/kg; read-out: Volume of Distribution (Vd), Range
- Procedure: This study was conducted in healthy male or female volunteers, at a single site to assess the safety and PK profile of an IV formulation of Carbaglu and to determine the absolute bioavailability of the current marketed oral formulation of Carbaglu. The levels of CGA in plasma and urine were analysed using a fully validated method, which included LC-MS/MS analysis. The PK data were analysed based on a non-compartmental model. […]
METRIC: Vd

Reported Vd ( NC(=O)N[C@@H](CCC(=O)O)C(=O)O ) = 7.02 to 17.5 L/kg

====

- PROCEDURE_DETAILS: CARIV-A-001 Part B: cross-over IV infusion over 2 hours vs oral tablet 100 mg/kg in healthy subjects
- Assay type: in vivo, human
- SETTINGS: both sexes, human, plasma, oral, 100 mg/kg, OR, 100 mg/kg, N 12; read-out: HL (Half-life), Mean (converted)
METRIC: half-life (h)
Could you give me the number in h? Just the number is fine.

Reported half-life ( NC(=O)N[C@@H](CCC(=O)O)C(=O)O [carglumic acid, N-carbamoyl-L-glutamic acid] ) = 24.6

====

- PROCEDURE_DETAILS: CARIV-A-001 Part A: single ascending IV doses over 20 minutes in healthy subjects
- Type: in vivo, human
- SETTINGS: both sexes, human, plasma, iv, after IV administration; read-out: Total clearance, range
METRIC: clearance

Reported clearance ( NC(=O)N[C@@H](CCC(=O)O)C(=O)O ) = 241 to 502 mL/min

====

- PROCEDURE_DETAILS: CARIV-A-001 Part A: single ascending IV doses over 20 minutes in healthy subjects
- Format: in vivo, human
- SETTINGS: both sexes, human, plasma, iv, 7.5 mg/kg, IV over 20 minutes, 7.5 mg/kg; read-out: AUC24h, Range
METRIC: AUC(0-t)

Reported AUC(0-t) ( NC(=O)N[C@@H](CCC(=O)O)C(=O)O ) = 19200 to 26900 ng·h/mL

====

- PROCEDURE_DETAILS: clinical
- SETTINGS: both sexes, human, in vivo, iv, Vd, Mean
METRIC: Vd (L/kg)
Could you give me the number in L/kg? Just the number is fine.

Reported Vd ( NC(=O)N[C@@H](CCC(=O)O)C(=O)O ) = 13

====

- PROCEDURE_DETAILS: CARIV-A-001 Part B: cross-over IV infusion over 2 hours vs oral tablet 100 mg/kg in healthy subjects
- Format: in vivo, human
- SETTINGS: dose normalized section; Test (oral data)
METRIC: testHalf life, Mean (h)
Could you give me the number in h? Just the number is fine.

Reported testHalf life, Mean ( NC(=O)N[C@@H](CCC(=O)O)C(=O)O ) = 24.6

====

- PROCEDURE_DETAILS: CARIV-A-001 Part A: single ascending IV doses over 20 minutes in healthy subjects
- Type: in vivo, human
- SETTINGS: both sexes, human, plasma, iv, 7.5 mg/kg, IV over 20 minutes, 7.5 mg/kg; read-out: AUC24h, Mean
METRIC: AUC(0-t) (ng·h/mL)
Could you give me the number in ng·h/mL? Just the number is fine.

Reported AUC(0-t) ( NC(=O)N[C@@H](CCC(=O)O)C(=O)O ) = 21600

====

- PROCEDURE_DETAILS: CARIV-A-001 Part A: single ascending IV doses over 20 minutes in healthy subjects
- Assay type: in vivo, human
- SETTINGS: both sexes, human, plasma, iv, 3.5 mg/kg, IV over 20 minutes, 3.5 mg/kg; read-out: AUClast-timepoint, Range
METRIC: AUC(0-t)

Reported AUC(0-t) ( NC(=O)N[C@@H](CCC(=O)O)C(=O)O [carglumic acid, N-carbamoyl-L-glutamic acid] ) = 8990 to 11500 ng·h/mL

====

- PROCEDURE_DETAILS: CARIV-A-001 Part A: single ascending IV doses over 20 minutes in healthy subjects
- Format: in vivo, human
- SETTINGS: both sexes, human, plasma, iv, after IV administration; read-out: Terminal half-life, median (converted)
METRIC: half-life

Reported half-life ( NC(=O)N[C@@H](CCC(=O)O)C(=O)O [carglumic acid, N-carbamoyl-L-glutamic acid] ) = ~1320 min

====

- PROCEDURE_DETAILS: CARIV-A-001 Part A: single ascending IV doses over 20 minutes in healthy subjects
- Type: in vivo, human
- SETTINGS: both sexes, human, plasma, iv, 5 mg/kg, IV over 20 minutes, 5.0 mg/kg; read-out: Volume of Distribution (Vd), Mean
METRIC: Vd

Reported Vd ( NC(=O)N[C@@H](CCC(=O)O)C(=O)O [carglumic acid, N-carbamoyl-L-glutamic acid] ) = 9.94 L/kg

====

- PROCEDURE_DETAILS: CARIV-A-001 Part A: single ascending IV doses over 20 minutes in healthy subjects
- Format: in vivo, human
- SETTINGS: both sexes, human, plasma, iv, 3.5 mg/kg, IV over 20 minutes, 3.5 mg/kg; read-out: Cmax, Mean
METRIC: Cmax (ng/mL)
Could you give me the number in ng/mL? Just the number is fine.

Reported Cmax ( NC(=O)N[C@@H](CCC(=O)O)C(=O)O ) = 11400

====

- PROCEDURE_DETAILS: CARIV-A-001 Part B: cross-over IV infusion over 2 hours vs oral tablet 100 mg/kg in healthy subjects
- Format: in vivo, human
- SETTINGS: both sexes, human, plasma, oral, 100 mg/kg, OR, 100 mg/kg, N 12; read-out: AUCinf, Mean
METRIC: AUC(0-inf) (µg·h/mL)
Could you give me the number in µg·h/mL? Just the number is fine.

Reported AUC(0-inf) ( NC(=O)N[C@@H](CCC(=O)O)C(=O)O ) = 31.4

====

- PROCEDURE_DETAILS: CARIV-A-001 Part B: cross-over IV infusion over 2 hours vs oral tablet 100 mg/kg in healthy subjects
- Assay type: in vivo, human
- SETTINGS: both sexes, human, plasma, iv, 8 mg/kg, IV, 8 mg/kg, N 10; read-out: CL, Median (converted)
METRIC: clearance (mL/min/kg)
Could you give me the number in mL/min/kg? Just the number is fine.

Reported clearance ( NC(=O)N[C@@H](CCC(=O)O)C(=O)O ) = 5.63

====

- PROCEDURE_DETAILS: CARIV-A-001 Part A: single ascending IV doses over 20 minutes in healthy subjects
- Format: in vivo, human
- SETTINGS: both sexes, human, plasma, iv, 5 mg/kg, IV over 20 minutes, 5.0 mg/kg; read-out: AUC24h, Range
METRIC: AUC(0-t)

Reported AUC(0-t) ( NC(=O)N[C@@H](CCC(=O)O)C(=O)O ) = 11100 to 19300 ng·h/mL

====

- PROCEDURE_DETAILS: CARIV-A-001 Part A: single ascending IV doses over 20 minutes in healthy subjects
- Format: in vivo, human
- SETTINGS: both sexes, human, plasma, iv, IV over 20 minutes, in each cohort; read-out: Total body clearance, mean value (converted)
METRIC: clearance (mL/min/kg)
Could you give me the number in mL/min/kg? Just the number is fine.

Reported clearance ( NC(=O)N[C@@H](CCC(=O)O)C(=O)O ) = 5.33

====

- PROCEDURE_DETAILS: CARIV-A-001 Part A: single ascending IV doses over 20 minutes in healthy subjects
- Type: in vivo, human
- SETTINGS: both sexes, human, plasma, iv, 5 mg/kg, IV over 20 minutes, 5.0 mg/kg; read-out: AUCinf, Range
METRIC: AUC(0-inf)

Reported AUC(0-inf) ( NC(=O)N[C@@H](CCC(=O)O)C(=O)O [carglumic acid, N-carbamoyl-L-glutamic acid] ) = 12300 to 20000 ng·h/mL

====

- PROCEDURE_DETAILS: clinical
- SETTINGS: both sexes, human, in vivo, iv, Cl, Mean
METRIC: clearance (mL/min/kg)
Could you give me the number in mL/min/kg? Just the number is fine.

Reported clearance ( NC(=O)N[C@@H](CCC(=O)O)C(=O)O [carglumic acid, N-carbamoyl-L-glutamic acid] ) = 5.33

====

- PROCEDURE_DETAILS: CARIV-A-001 Part A: single ascending IV doses over 20 minutes in healthy subjects
- Assay type: in vivo, human
- SETTINGS: both sexes, human, plasma, iv, after IV administration; read-out: Total clearance, median
METRIC: clearance (mL/min)
Could you give me the number in mL/min? Just the number is fine.

Reported clearance ( NC(=O)N[C@@H](CCC(=O)O)C(=O)O ) = 354
